Reference source for all entries: paper PMC6769468

targetEntity: rat ASIC1a (Rattus norvegicus)
Construct: expressed in transfected cells; host or cells: Xenopus laevis oocytes (injected)
Sequence (P55926 whole entry): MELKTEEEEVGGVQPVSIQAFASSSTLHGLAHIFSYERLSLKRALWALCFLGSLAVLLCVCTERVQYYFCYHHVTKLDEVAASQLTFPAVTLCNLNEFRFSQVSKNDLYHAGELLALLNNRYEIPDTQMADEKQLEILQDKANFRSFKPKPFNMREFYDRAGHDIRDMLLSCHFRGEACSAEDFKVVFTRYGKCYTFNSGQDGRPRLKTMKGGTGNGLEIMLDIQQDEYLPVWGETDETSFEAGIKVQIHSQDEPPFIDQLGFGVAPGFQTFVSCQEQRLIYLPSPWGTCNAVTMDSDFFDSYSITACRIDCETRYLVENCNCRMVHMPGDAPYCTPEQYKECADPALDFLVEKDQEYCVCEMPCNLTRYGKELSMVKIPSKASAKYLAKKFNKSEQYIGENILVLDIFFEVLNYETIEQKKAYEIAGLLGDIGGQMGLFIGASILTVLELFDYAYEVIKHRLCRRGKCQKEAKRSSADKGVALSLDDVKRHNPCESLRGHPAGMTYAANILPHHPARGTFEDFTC
measurementDescription: Inhibition of pH 5.5-induced ASIC1a current following rNS action
Type: cell-based
experimentalParameters: integral of pH 5.5-induced current after nocistatin, F3 (fitted much worse than amplitude)
Ends that are not written are not given here.
measure: IC50 (µM)
State the answer as a number, implicitly in µM.

Which IC50 value is on record for MPRVRSVVQARDAEPEADAEPVADEADEVEQKQLQ [rNS] ? 150
